Biological target: ScErg11p6×His (S. cerevisiae lanosterol 14α-demethylase) (Saccharomyces cerevisiae, UniProt P10614)
Construct: Crystal structures of the full length S. cerevisiae lanosterol 14α-demethylase (ScErg11p6×His); 6×His (hexahistidine); made in house; host or cells: Saccharomyces cerevisiae (AD3Δ overexpression strain, native ERG11 deleted)
Sequence (P10614 whole entry): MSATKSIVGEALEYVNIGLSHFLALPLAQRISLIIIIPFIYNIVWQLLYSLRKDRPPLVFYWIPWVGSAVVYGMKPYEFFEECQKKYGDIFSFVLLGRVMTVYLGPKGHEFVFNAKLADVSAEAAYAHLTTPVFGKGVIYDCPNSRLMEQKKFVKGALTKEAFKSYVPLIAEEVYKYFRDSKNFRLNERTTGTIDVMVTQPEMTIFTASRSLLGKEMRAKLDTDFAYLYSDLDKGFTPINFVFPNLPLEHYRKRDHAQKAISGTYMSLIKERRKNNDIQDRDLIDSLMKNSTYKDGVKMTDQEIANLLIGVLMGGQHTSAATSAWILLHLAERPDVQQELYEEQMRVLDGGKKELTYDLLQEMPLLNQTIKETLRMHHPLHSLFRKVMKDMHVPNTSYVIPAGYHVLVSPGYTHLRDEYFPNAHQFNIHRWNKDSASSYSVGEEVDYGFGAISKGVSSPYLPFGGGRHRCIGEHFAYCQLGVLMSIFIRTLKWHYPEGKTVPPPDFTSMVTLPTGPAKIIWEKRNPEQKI
Assay: Type II binding (difference spectra) to affinity purified ScErg11p6×His
Settings: azole up to 2 μM, 1 μM ScErg11p6×His
Description: Type II azole binding is characterised by a shift of the Soret peak from 417 nm to 421–424 nm in ScErg11p6×His and other cytochrome P450s. The type II difference spectra were used to detect and quantitate binding of the inhibitors S-TBZ, R-TBZ, S-PTZ, R-PTZ, S-DPZ, R-DPZ, S-oxo-PTZ and R-oxo-PTZ, FQZ, and PRZ using Ni-NTA affinity purified wild type ScErg11p6×His preparations at 1 μM. […]
endpoint: type of binding (difference spectra)

| molecule | value.reported |
| --- | --- |
| CC(C)(C)[C@](O)(CCc1ccc(Cl)cc1)Cn1cncn1 [R-Tebuconazole, R-tebuconazole] | type II binding |
| O=c1c2cc(F)ccc2nc(-n2cncn2)n1-c1ccc(Cl)cc1Cl [Fluquinconazole, fluquinconazole] | type II binding |

###

Tested on: S. cerevisiae AD3Δ overexpressing ScErg11p6×His wild type, native ERG11 deleted
Assay: MIC50 broth microdilution, AD3Δ strain overexpressing wild type ScErg11p6×His
Format: cell-based, Saccharomyces cerevisiae
Settings: AD3Δ, ScErg11p6×His overexpressed from PDR5 locus, native ERG11 deleted; mean ± standard error
endpoint: MIC50

| compound | value.reported |
| --- | --- |
| O=c1[nH]cnn1CC(O)(Cc1ccccc1Cl)C1(Cl)CC1 (stereo not shown) [S-Oxo-prothioconazole, S-oxo-prothioconazole] | 84 ± 3 µM |
| O=c1[nH]cnn1CC(O)(Cc1ccccc1Cl)C1(Cl)CC1 (stereo not shown) [R-Oxo-prothioconazole, R-oxo-prothioconazole] | 80 ± 2 µM |
| OC(Cc1ccccc1Cl)(Cn1nc[nH]c1=S)C1(Cl)CC1 (stereo not shown) [R-Prothioconazole, R-prothioconazole] | 16 ± 3 µM |
| OC(Cc1ccccc1Cl)(Cn1nc[nH]c1=S)C1(Cl)CC1 (stereo not shown) [S-Prothioconazole, S-prothioconazole] | 0.28 ± 0.02 µM |

###

Molecular target: ScErg11p6×His (S. cerevisiae lanosterol 14α-demethylase) (Saccharomyces cerevisiae)
Construct: Crystal structures of the full length S. cerevisiae lanosterol 14α-demethylase (ScErg11p6×His); 6×His (hexahistidine); made in house; host or cells: Saccharomyces cerevisiae (AD3Δ overexpression strain, native ERG11 deleted)
Assay: Type II binding (difference spectra) to affinity purified ScErg11p6×His
Conditions: Soret peak; (-) indicates no significant change in Soret peak wavelength
endpoint: Induced spectral shift on ligand binding Wavelength

| compound | value.reported |
| --- | --- |
| O=c1[nH]cnn1CC(O)(Cc1ccccc1Cl)C1(Cl)CC1 (centres unmarked) [R-Oxo-prothioconazole, R-oxo-prothioconazole] | 417(-) nm |
| OC(Cc1ccccc1Cl)(Cn1nc[nH]c1=S)C1(Cl)CC1 (centres unmarked) [S-Prothioconazole, S-prothioconazole] | 417 (-) nm |
| CC(C)(C)C(O)(CCc1ccc(Cl)cc1)Cn1cncn1 (centres unmarked) | 417 nm to ~421 |
| O=c1[nH]cnn1CC(O)(Cc1ccccc1Cl)C1(Cl)CC1 (centres unmarked) [S-Oxo-prothioconazole, S-oxo-prothioconazole] | 417(-) nm |
| OC(Cc1ccccc1Cl)(Cn1cncn1)C1(Cl)CC1 (centres unmarked) | 417 nm to ~421 |
| OC(Cc1ccccc1Cl)(Cn1nc[nH]c1=S)C1(Cl)CC1 (centres unmarked) [R-Prothioconazole, R-prothioconazole] | 417 (-) nm |
